# tested.system: myristoylated catalytic subunit of human PI3K delta in Rat-1 cells (Homo sapiens (Human))
# Sequence (O00329 whole entry): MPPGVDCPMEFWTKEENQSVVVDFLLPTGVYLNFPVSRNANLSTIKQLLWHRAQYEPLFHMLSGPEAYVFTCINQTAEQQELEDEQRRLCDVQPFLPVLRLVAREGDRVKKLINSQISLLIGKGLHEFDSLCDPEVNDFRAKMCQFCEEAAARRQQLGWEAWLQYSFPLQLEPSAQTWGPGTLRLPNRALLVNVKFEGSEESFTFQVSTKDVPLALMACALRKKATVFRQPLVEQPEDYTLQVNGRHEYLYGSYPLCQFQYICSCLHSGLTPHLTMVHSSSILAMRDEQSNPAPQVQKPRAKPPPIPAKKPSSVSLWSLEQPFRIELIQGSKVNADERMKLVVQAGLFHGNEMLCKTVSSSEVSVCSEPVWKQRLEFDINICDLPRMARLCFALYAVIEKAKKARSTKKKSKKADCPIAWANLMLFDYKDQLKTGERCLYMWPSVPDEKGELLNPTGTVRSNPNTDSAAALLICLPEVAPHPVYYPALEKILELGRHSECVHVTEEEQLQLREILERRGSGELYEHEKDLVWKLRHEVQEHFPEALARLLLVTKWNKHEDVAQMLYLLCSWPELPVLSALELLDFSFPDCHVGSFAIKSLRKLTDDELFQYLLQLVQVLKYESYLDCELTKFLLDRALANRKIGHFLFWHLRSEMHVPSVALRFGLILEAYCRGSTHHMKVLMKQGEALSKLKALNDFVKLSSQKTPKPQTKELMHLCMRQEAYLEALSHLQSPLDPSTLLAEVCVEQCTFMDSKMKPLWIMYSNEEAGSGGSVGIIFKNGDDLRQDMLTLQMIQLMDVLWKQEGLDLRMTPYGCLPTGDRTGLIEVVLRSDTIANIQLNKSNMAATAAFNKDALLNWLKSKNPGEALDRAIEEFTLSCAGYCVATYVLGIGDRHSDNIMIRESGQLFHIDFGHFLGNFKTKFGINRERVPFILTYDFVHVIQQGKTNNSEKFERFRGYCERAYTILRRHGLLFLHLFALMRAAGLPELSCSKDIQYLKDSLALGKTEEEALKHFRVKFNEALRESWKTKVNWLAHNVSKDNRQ
# experiment.description: PI3K-mediated Akt 1/2 (S473) phosphorylation in Rat-1 cells, PI3K delta
# Assay type: cell-based
# experimental.context: Rat-1 cells overexpressing myristoylated human PI3K delta; p-Akt (S473) AlphaScreen SureFire; read-out: Cell PI3Kδ/ IC50
pIC50: −log10 of the molar value.
quantity.measured: pIC50

>>> numeric_result("[2H]C1([2H])COc2ccc(O[C@H]3CCN(C(=O)C4CCOCC4)C3)cc2N1c1cnc(OC)c(C)c1 (single isomer, unassigned) [Q]")
6.84
>>> numeric_result("COc1ncc(N2CCOc3ccc(O[C@H]4CCN(C(=O)C5CCOCC5)C4)cc32)cc1C#N [Example C1]")
7.09
>>> numeric_result("COc1ncc(N2CCOc3cnc(O[C@H]4CCN(C(=O)C5CCOCC5)C4)cc32)cc1C [Example E3]")
7.74
>>> numeric_result("COc1ncc(N2CCOc3cnc(O[C@H]4CCN(C(=O)c5cn(C)cn5)C4)cc32)cc1F [Example F3]")
7.30

* * *

# tested.system: PI3K delta (Homo sapiens (Human))
# Sequence (O00329 other isoform, or with tags, fused parts or gaps linker GGGGGG): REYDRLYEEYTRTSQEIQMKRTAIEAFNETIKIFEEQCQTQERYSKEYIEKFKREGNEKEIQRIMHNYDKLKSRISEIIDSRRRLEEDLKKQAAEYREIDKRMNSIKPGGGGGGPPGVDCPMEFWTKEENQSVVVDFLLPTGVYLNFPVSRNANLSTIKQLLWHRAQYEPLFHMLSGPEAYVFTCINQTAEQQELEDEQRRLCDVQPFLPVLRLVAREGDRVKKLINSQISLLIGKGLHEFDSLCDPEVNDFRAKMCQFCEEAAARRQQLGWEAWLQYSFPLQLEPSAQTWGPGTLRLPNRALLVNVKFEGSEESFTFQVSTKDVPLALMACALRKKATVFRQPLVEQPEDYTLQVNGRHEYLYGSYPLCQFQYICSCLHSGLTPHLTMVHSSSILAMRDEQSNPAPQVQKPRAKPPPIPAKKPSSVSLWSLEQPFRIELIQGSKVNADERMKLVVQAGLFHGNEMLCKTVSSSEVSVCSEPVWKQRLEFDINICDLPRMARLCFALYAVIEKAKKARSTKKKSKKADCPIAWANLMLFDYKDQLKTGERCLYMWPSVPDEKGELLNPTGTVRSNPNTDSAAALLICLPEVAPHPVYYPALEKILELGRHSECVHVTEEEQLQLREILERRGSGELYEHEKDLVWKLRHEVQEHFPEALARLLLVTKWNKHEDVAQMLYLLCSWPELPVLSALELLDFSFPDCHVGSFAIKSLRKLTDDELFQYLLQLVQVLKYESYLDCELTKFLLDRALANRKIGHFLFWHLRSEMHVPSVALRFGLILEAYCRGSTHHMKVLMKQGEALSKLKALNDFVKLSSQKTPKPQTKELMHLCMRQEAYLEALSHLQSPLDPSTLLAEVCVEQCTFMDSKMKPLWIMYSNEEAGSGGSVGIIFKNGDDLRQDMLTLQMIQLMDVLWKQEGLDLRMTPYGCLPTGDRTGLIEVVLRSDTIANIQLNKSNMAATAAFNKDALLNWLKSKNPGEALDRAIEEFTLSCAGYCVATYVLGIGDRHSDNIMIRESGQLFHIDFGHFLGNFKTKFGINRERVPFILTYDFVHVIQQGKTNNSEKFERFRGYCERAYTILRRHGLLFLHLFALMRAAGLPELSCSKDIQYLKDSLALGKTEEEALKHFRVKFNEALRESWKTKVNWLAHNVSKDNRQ
# experiment.description: Enzymatic PI3K delta isoform inhibition (lipid kinase activity, Kinase-Glo luminescence)
# experimental.context: Enzymatic assay
Define the label as MET when IC50 is strictly less than 20 nM and as NOT MET in all remaining cases.

>>> class_label("Cc1cc(N2CCOc3ccc(O[C@H]4CCN(C(=O)C5CCOC(C)(C)C5)C4)cc32)cnc1S(C)(=O)=O (stereo partly shown)")
"MET"
>>> class_label("COc1ncc(N2CCOc3ccc(O[C@H]4CCN(C(=O)CC#N)C4)cc32)cc1F")
"NOT MET"
>>> class_label("COc1ncc(N2CCOc3ccc(O[C@H]4CCN(C(=O)c5ccno5)C4)cc32)cc1C#N")
"MET"
>>> class_label("Cc1cc(N2CCOc3ccc(O[C@H]4CCN(C(=O)C5CCOC5)C4)cc32)cnc1S(C)(=O)=O (stereo partly shown) [Example B52]")
"MET"
>>> class_label("O=C(C1CCOCC1)N1CC[C@H](Oc2ccc3c(c2)N(c2cncc(Cl)c2)CCO3)C1")
"MET"
>>> class_label("CCS(=O)(=O)c1ccc(N2CCOc3ccc(O[C@H]4CCN(C(=O)C5CCOCC5)C4)cc32)cn1")
"NOT MET"

* * *

# tested.system: UniProt:P42336
# Sequence (P42336 other isoform, or with tags, fused parts or gaps): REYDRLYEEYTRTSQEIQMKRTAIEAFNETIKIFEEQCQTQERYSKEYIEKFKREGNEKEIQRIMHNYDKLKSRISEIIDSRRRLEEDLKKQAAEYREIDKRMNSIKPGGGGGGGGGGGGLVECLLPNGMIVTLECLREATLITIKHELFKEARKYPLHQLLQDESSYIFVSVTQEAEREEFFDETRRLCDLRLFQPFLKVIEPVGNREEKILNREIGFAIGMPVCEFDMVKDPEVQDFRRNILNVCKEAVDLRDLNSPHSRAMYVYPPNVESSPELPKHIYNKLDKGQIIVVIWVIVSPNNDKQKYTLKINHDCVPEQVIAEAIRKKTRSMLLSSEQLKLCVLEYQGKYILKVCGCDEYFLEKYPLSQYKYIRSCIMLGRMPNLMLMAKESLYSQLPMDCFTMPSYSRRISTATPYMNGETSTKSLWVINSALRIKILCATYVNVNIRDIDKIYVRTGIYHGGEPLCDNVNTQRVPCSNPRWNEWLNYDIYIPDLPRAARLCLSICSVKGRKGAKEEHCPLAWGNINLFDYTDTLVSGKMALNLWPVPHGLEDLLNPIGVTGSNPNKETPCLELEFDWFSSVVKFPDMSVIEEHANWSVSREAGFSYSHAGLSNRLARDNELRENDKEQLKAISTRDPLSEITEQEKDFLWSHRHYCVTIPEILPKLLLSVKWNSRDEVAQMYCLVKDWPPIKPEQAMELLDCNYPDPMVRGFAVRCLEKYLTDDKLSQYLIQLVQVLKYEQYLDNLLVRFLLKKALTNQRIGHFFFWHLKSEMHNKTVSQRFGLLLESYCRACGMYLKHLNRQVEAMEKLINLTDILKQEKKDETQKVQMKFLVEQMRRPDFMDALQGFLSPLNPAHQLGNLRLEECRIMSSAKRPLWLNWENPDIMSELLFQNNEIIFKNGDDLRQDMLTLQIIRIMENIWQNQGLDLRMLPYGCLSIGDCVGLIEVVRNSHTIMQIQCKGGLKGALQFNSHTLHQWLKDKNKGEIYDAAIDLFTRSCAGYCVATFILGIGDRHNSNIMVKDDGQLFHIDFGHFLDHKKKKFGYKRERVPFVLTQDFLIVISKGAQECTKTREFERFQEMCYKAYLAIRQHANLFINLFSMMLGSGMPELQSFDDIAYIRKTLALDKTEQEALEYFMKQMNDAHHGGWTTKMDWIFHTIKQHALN
# experiment.description: Enzymatic PI3K alpha isoform inhibition (lipid kinase activity, Kinase-Glo luminescence)
# experimental.context: Enzymatic assay
pIC50: −log10 of the molar value.
quantity.measured: pIC50

>>> numeric_result("Cc1cc(N2CCOc3ccc(O[C@H]4CCN(C(=O)C5CCOC(C)(C)C5)C4)cc32)cnc1S(C)(=O)=O (stereo partly shown) [Example B26]")
6.55
>>> numeric_result("COc1ncc(N2CCOc3ccc(O[C@H]4CCN(C(=O)C5CCOCC5)C4)cc32)cc1C(F)F [Example B120]")
7.06
>>> numeric_result("COc1ncc(N2CCOc3ccc(O[C@H]4CCN(C(=O)[C@@H]5CCN(C)C5)C4)cc32)cc1C#N [L]")
6.27
>>> numeric_result("Cc1cc(N2CCOc3ccc(O[C@H]4CCN(C(=O)C5CCCOC5)C4)cc32)cnc1S(C)(=O)=O (stereo partly shown) [Example B42]")
6.30
>>> numeric_result("COc1ncc(N2CCOc3ccc(O[C@H]4CCN(C(=O)c5ccn(C)n5)C4)cc32)cc1C [Example B21]")
6.18
>>> numeric_result("COc1cc(N2CCOc3ccc(O[C@H]4CCN(C(=O)C5CCOCC5)C4)cc32)ccn1 [Example A22]")
6.12
>>> numeric_result("COc1cc(N2CCOc3ccc(O[C@H]4CCN(C(=O)C5CCOCC5)C4)cc32)cnc1OC [Example B38]")
6.78
